- target_of_assay: recombinant human transforming growth factor-beta (rhTGF-β) (human)
- Sequence (P01137 279-390): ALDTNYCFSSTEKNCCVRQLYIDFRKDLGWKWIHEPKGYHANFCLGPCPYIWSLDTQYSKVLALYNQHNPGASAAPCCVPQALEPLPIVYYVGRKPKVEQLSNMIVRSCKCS
- protocol_text: SPR (Biacore X), ligand amine-coupled to CM-5 chip, Langmuir analysis
- Description: The supernatant was decanted and used for analyses. Protein concentrations were determined using UV spectroscopy at an absorbance of 280 nm. Extinction coefficients were calculated using ProtParam tool (www.expasy.ch/tools/protparam.html). Flow rates ranged from 5 to 50 μl/min, and injection volumes were 20 to 100 μl. To ensure uniformity, an effort was made to react sufficient ligand to the chip to give a baseline value of about 2500 RU (response units). […]
Bridges are numbered along the chain shown (N, C = ends). Where no end group is shown, it is not given here.
measurement_kind: Kd (nM)
Output spec: scalar in nM, unitless text.

Asked: Please look up its Kd: CRSTVRMSAEQVQNVWVRC (disulfide 1-19 (inferred), it is treated here as the same bovine cyclic peptide; also called cyclized BBP) [BMP Binding Peptide (BBP), cyclized synthetic 19 amino acid peptide]
Given back: 68
